- test target: T1, 4H3378-AA
- T1 chain: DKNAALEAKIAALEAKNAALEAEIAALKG
- assay summary: two-hybrid library CCmax;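 also: natural log of median RNA to DNA barcode read ratio; higher means stronger binding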
- experimental setup: mean of both orientations
Assignment: determine reported interaction score for the given binders.
Lab note: jot down the number only; don't add units.

query: Read the entry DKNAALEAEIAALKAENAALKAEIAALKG [4H3162-AA] and write its reported interaction score.
result: -1.59

query: Read the entry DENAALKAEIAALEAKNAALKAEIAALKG [4H1594-AA] and write its reported interaction score.
result: -0.189

query: Read the entry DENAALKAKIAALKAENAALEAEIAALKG [4H1874-AA] and write its reported interaction score.
result: -0.221

query: Read the entry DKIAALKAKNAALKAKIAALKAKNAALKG [4H3056-AA] and write its reported interaction score.
result: -1.09

query: Read the entry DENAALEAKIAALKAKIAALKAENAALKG [4H1388-AA] and write its reported interaction score.
result: -1.68
